Each record here notes measured PBM binding z-score.
Tested on: RARg homodimer (NR concentration 270 nM)
PROCEDURE SUMMARY: PBM binding z-score (relative to random genomic background probes); higher = stronger binding; sequences stand for … in GC…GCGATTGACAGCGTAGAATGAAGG
Number only, please.

[[record]]
sequence_data = "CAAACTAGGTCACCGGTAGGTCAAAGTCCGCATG"
study_target = "RARg homodimer (NR concentration 270 nM)"
measured_result = 6.27

[[record]]
sequence_data = "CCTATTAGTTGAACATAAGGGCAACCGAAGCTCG"
study_target = "RARg homodimer (NR concentration 270 nM)"
measured_result = 1.14

[[record]]
sequence_data = "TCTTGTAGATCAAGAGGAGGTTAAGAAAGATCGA"
study_target = "RARg homodimer (NR concentration 270 nM)"
measured_result = 0.204

[[record]]
sequence_data = "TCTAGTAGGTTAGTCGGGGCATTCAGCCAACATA"
study_target = "RARg homodimer (NR concentration 270 nM)"
measured_result = 0.358

[[record]]
sequence_data = "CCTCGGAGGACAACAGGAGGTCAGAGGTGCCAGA"
study_target = "RARg homodimer (NR concentration 270 nM)"
measured_result = 3.16

[[record]]
sequence_data = "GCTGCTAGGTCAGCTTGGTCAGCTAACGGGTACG"
study_target = "RARg homodimer (NR concentration 270 nM)"
measured_result = 3.88

[[record]]
sequence_data = "GCTAGTAGATCAAGGTTAAGAAAGACTAAGCTAA"
study_target = "RARg homodimer (NR concentration 270 nM)"
measured_result = 0.168


// below: PBM binding z-score requested for another sequence
Incoming: Returns the measured PBM binding z-score for the input sequence. Input: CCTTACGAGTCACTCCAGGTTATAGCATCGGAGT
Outgoing: 0.863

----------
Each record here notes measured PBM binding z-score.
Test system: PPARg:RXRa 30nM:10nM, anti-RXR (NR concentration 30 nM, RXRa partner concentration 10 nM)
PROCEDURE SUMMARY: PBM binding z-score (relative to random genomic background probes); higher = stronger binding; sequences stand for … in GC…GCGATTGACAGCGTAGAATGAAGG

Study these solved cases before continuing.
[[record]]
sequence_data = "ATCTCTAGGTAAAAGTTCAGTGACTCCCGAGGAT"
measured_result = 8.38

[[record]]
sequence_data = "AATACAGGTTCATCGTAGGCCAGAGTACGCACAG"
measured_result = 0.478

[[record]]
sequence_data = "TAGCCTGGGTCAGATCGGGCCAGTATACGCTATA"
measured_result = -0.488

[[record]]
sequence_data = "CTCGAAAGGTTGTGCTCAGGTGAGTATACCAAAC"
measured_result = -0.567

[[record]]
sequence_data = "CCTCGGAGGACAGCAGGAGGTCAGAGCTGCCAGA"
measured_result = -1.08

[[record]]
sequence_data = "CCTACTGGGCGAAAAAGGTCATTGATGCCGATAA"
measured_result = 0.977


Incoming: Returns the measured PBM binding z-score for the input sequence. Input: TCTTGTAGATCAGCAGGTTGAGAAAGCTGGCCAA
Outgoing: 2.58

Incoming: Returns the measured PBM binding z-score for the input sequence. Input: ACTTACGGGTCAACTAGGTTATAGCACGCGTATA
Outgoing: 2.25

Numbers sourced from the supplement of paper PMC6555819.
